- Test system: S. epidermidis PCM 2118
- EXPERIMENTAL PROTOCOL: MIC, broth microdilution
- Assay type: cell-based, Staphylococcus epidermidis
- CONDITION INFO: S. epidermidis PCM 2118, 24 h
Where a SMILES comes first, the peptide text is derived from it. [ ]: non-standard residue; d: D form. The star is where a group is joined. Palmitoyl = CCCCCCCCCCCCCCCC(=O)*; Lauroyl = CCCCCCCCCCCC(=O)*; Pentanoyl = CCCCC(=O)*; AEEA = NCCOCCOCC(=O)O; Ahx = NCCCCCC(=O)O; βAla = NCCC(=O)O
PARAMETER MEASURED: MIC100 (µg/mL)
Answers are plain numbers, in µg/mL.

[[record]]
compound = "CCCCCCCCCCCCCCCC(=O)N[C@H](C(=O)N[C@@H](CCCCN)C(=O)N[C@@H](CCCCN)C(=O)N[C@H](C(=O)N[C@@H](CC(C)C)C(=O)N[C@@H](CO)C(=O)N[C@@H](CCCCN)C(=O)N[C@H](C(=O)N[C@@H](CCCCN)C(=O)N[C@@H](CCCCN)C(=O)N[C@@H](CC(C)C)C(=O)N[C@@H](CC(C)C)C(N)=O)[C@@H](C)CC)[C@@H](C)CC)[C@@H](C)CC [Compound C16-DK5] (Palmitoyl-IKKILSKIKKLL-NH2)"
parameter_measured = "MIC100"
test_result = 25

[[record]]
compound = "CCCCCCCCCCCC(=O)NCCC(=O)N[C@@H](Cc1c[nH]cn1)C(=O)NCCOCCOCC(=O)N[C@H](C(=O)N[C@@H](CCCCN)C(=O)N[C@@H](CCCCN)C(=O)N[C@H](C(=O)N[C@@H](CC(C)C)C(=O)N[C@@H](CO)C(=O)N[C@@H](CCCCN)C(=O)N[C@H](C(=O)N[C@@H](CCCCN)C(=O)N[C@@H](CCCCN)C(=O)N[C@@H](CC(C)C)C(=O)N[C@@H](CC(C)C)C(N)=O)[C@@H](C)CC)[C@@H](C)CC)[C@@H](C)CC [C12-CAR-PEG-DK5] ({Lauroyl-βAla}-H[AEEA]IKKILSKIKKLL-NH2)"
parameter_measured = "MIC100"
test_result = 0.78

[[record]]
compound = "CCCCCCCCCCCC(=O)N[C@H](C(=O)N[C@@H](CCCCN)C(=O)N[C@@H](CCCCN)C(=O)N[C@H](C(=O)N[C@@H](CC(C)C)C(=O)N[C@@H](CO)C(=O)N[C@@H](CCCCN)C(=O)N[C@H](C(=O)N[C@@H](CCCCN)C(=O)N[C@@H](CCCCN)C(=O)N[C@@H](CC(C)C)C(=O)N[C@@H](CC(C)C)C(N)=O)[C@@H](C)CC)[C@@H](C)CC)[C@@H](C)CC [Compound C12-DK5] (Lauroyl-IKKILSKIKKLL-NH2)"
parameter_measured = "MIC100"
test_result = 0.78


Please give MIC100 for each item listed below.
1. CCCCC(=O)N[C@H](C(=O)N[C@@H](CCCCN)C(=O)N[C@@H](CCCCN)C(=O)N[C@H](C(=O)N[C@@H](CC(C)C)C(=O)N[C@@H](CO)C(=O)N[C@@H](CCCCN)C(=O)N[C@H](C(=O)N[C@@H](CCCCN)C(=O)N[C@@H](CCCCN)C(=O)N[C@@H](CC(C)C)C(=O)N[C@@H](CC(C)C)C(N)=O)[C@@H](C)CC)[C@@H](C)CC)[C@@H](C)CC [Compound C5-DK5] (Pentanoyl-IKKILSKIKKLL-NH2)
2. CC[C@H](C)[C@H](NC(=O)COCCOCCNC(=O)[C@H](Cc1c[nH]cn1)NC(=O)CCN)C(=O)N[C@@H](CCCCN)C(=O)N[C@@H](CCCCN)C(=O)N[C@H](C(=O)N[C@@H](CC(C)C)C(=O)N[C@@H](CO)C(=O)N[C@@H](CCCCN)C(=O)N[C@H](C(=O)N[C@@H](CCCCN)C(=O)N[C@@H](CCCCN)C(=O)N[C@@H](CC(C)C)C(=O)N[C@@H](CC(C)C)C(N)=O)[C@@H](C)CC)[C@@H](C)CC [CAR-PEG-DK5] (H-[βAla]H[AEEA]IKKILSKIKKLL-NH2; N-terminus and C-terminus assumed)
3. CC[C@H](C)[C@H](NC(=O)CCCCCN)C(=O)N[C@@H](CCCCN)C(=O)N[C@@H](CCCCN)C(=O)N[C@H](C(=O)N[C@@H](CC(C)C)C(=O)N[C@@H](CO)C(=O)N[C@@H](CCCCN)C(=O)N[C@H](C(=O)N[C@@H](CCCCN)C(=O)N[C@@H](CCCCN)C(=O)N[C@@H](CC(C)C)C(=O)N[C@@H](CC(C)C)C(N)=O)[C@@H](C)CC)[C@@H](C)CC [AHX-DK5] (H-[Ahx]IKKILSKIKKLL-NH2)

1: 0.78; 2: 3.9; 3: 0.78

* * *

Task for the reader: assign each of the following compounds its reported MIC100.
- Test system: S. aureus USA300
- Format: cell-based, Staphylococcus aureus
Where a SMILES comes first, the peptide text is derived from it. [ ]: non-standard residue; d: D form. The star is where a group is joined. Lauroyl = CCCCCCCCCCCC(=O)*; Pentanoyl = CCCCC(=O)*; AEEA = NCCOCCOCC(=O)O; βAla = NCCC(=O)O

Known MIC100 results, listed for orientation:
[[record]]
compound = "CCCCCCCCCCCC(=O)N[C@H](C(=O)N[C@@H](CCCCN)C(=O)N[C@@H](CCCCN)C(=O)N[C@H](C(=O)N[C@@H](CC(C)C)C(=O)N[C@@H](CO)C(=O)N[C@@H](CCCCN)C(=O)N[C@H](C(=O)N[C@@H](CCCCN)C(=O)N[C@@H](CCCCN)C(=O)N[C@@H](CC(C)C)C(=O)N[C@@H](CC(C)C)C(N)=O)[C@@H](C)CC)[C@@H](C)CC)[C@@H](C)CC [Compound C12-DK5] (Lauroyl-IKKILSKIKKLL-NH2)"
system_under_test = "S. aureus USA300"
test_result = "25 µg/mL"

[[record]]
compound = "CC[C@H](C)[C@H](NC(=O)COCCOCCNC(=O)[C@H](Cc1c[nH]cn1)NC(=O)CCN)C(=O)N[C@@H](CCCCN)C(=O)N[C@@H](CCCCN)C(=O)N[C@H](C(=O)N[C@@H](CC(C)C)C(=O)N[C@@H](CO)C(=O)N[C@@H](CCCCN)C(=O)N[C@H](C(=O)N[C@@H](CCCCN)C(=O)N[C@@H](CCCCN)C(=O)N[C@@H](CC(C)C)C(=O)N[C@@H](CC(C)C)C(N)=O)[C@@H](C)CC)[C@@H](C)CC [CAR-PEG-DK5] (H-[βAla]H[AEEA]IKKILSKIKKLL-NH2; N-terminus and C-terminus assumed)"
system_under_test = "S. aureus USA300"
test_result = ">200 µg/mL"


Could you now consider this next compound?
I am curious: what MIC100 value has been reported for CCCCC(=O)N[C@H](C(=O)N[C@@H](CCCCN)C(=O)N[C@@H](CCCCN)C(=O)N[C@H](C(=O)N[C@@H](CC(C)C)C(=O)N[C@@H](CO)C(=O)N[C@@H](CCCCN)C(=O)N[C@H](C(=O)N[C@@H](CCCCN)C(=O)N[C@@H](CCCCN)C(=O)N[C@@H](CC(C)C)C(=O)N[C@@H](CC(C)C)C(N)=O)[C@@H](C)CC)[C@@H](C)CC)[C@@H](C)CC [Compound C5-DK5] (Pentanoyl-IKKILSKIKKLL-NH2) ?
25 µg/mL

* * *

Task for the reader: assign each of the following molecules its reported IC50.
- System: primary fibroblasts
- EXPERIMENTAL PROTOCOL: Cytotoxicity, MTT assay
- Type: cell-based, human
- CONDITION INFO: 24 h
Where a SMILES comes first, the peptide text is derived from it. [ ]: non-standard residue; d: D form. AEEA = NCCOCCOCC(=O)O; βAla = NCCC(=O)O

Known IC50 results, listed for orientation:
[[record]]
molecule = "CCCCCCCCCCCC(=O)NCCC(=O)N[C@@H](Cc1c[nH]cn1)C(=O)O [Compound C12-CAR, CH3(CH2)10C(O)-βAH]"
test_result = ">50 µg/mL"

[[record]]
molecule = "CCCCC(=O)NCCC(=O)N[C@@H](Cc1c[nH]cn1)C(=O)O"
test_result = ">50 µg/mL"

[[record]]
molecule = "CCCCCCCCCCCCCCCC(=O)NCCC(=O)N[C@@H](Cc1c[nH]cn1)C(=O)O [Compound C16-CAR, CH3(CH2)14C(O)-βAH]"
test_result = "12.5 µg/mL"


Lab note: need IC50 for CC[C@H](C)[C@H](NC(=O)COCCOCCNC(=O)[C@H](Cc1c[nH]cn1)NC(=O)CCN)C(=O)N[C@@H](CCCCN)C(=O)N[C@@H](CCCCN)C(=O)N[C@H](C(=O)N[C@@H](CC(C)C)C(=O)N[C@@H](CO)C(=O)N[C@@H](CCCCN)C(=O)N[C@H](C(=O)N[C@@H](CCCCN)C(=O)N[C@@H](CCCCN)C(=O)N[C@@H](CC(C)C)C(=O)N[C@@H](CC(C)C)C(N)=O)[C@@H](C)CC)[C@@H](C)CC [CAR-PEG-DK5] (H-[βAla]H[AEEA]IKKILSKIKKLL-NH2; N-terminus and C-terminus assumed) on primary fibroblasts, anyone have it?
35 µg/mL
